Data provenance: paper PMC12838644

IC50 by entry:
Test system: HEK-293T cells
Assay protocol: alamarBlue cytotoxicity assay, HEK-293T
Assay type: cell-based
Measurement conditions: Homo sapiens, cytotoxicity, alamarBlue, 24 h incubation, mean ± SD, three experiments, read-out: HEK-293T (IC50)
The figure you give is taken to be in nM; do not add the unit.

* Cc1coc2c1C(=O)C(=O)c1c-2ccc2c1CCCC2(C)C [TAII, tanshinone IIA] | 2260

Let us examine a further case.
Data request: # lookup: IC50 of Cc1coc2c1C(=O)C(=O)c1c-2ccc2c(C)cccc12 [TAI, tanshinone I]
Data returned: 1080

* * *

// values below are reported Residual 17,20-lyase activity
Subject of test: CYP17A1 17,20-lyase (Homo sapiens, UniProt P05093)
Sequence (P05093 1-508): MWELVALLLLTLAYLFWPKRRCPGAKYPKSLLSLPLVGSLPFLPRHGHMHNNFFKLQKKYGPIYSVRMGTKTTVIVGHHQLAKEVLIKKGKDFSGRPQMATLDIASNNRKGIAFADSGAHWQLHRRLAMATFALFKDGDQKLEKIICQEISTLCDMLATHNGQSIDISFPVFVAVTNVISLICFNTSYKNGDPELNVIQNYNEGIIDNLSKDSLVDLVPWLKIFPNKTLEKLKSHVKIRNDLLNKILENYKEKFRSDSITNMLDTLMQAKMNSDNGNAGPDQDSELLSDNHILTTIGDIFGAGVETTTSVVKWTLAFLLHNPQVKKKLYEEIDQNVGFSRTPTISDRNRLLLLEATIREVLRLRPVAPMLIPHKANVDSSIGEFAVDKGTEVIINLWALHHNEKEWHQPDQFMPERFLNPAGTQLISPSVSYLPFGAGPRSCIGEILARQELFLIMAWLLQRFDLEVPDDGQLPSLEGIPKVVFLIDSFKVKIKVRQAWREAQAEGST
Assay protocol: CYP17A1 17,20-lyase activity assay (DHEA from 17OH-pregnenolone, POR, CYP17A1 and cytochrome b5)
Assay type: biochemical
Measurement conditions: % of DMSO control; 10 µM (SM extract 10 µg/mL)
Please reply with the bare figure in % and do not write the unit itself.

- Cc1cccc2c3c(ccc12)C1=C(C(=O)C3=O)[C@@H](C)CO1 [DT, dihydrotanshinone I]: 43
- C[C@]12CC[C@H](O)CC1=CC[C@@H]1[C@@H]2CC[C@]2(C)C(c3cccnc3)=CC[C@@H]12 [Abiraterone, abiraterone, reference compound]: 30
- Cc1coc2c1C(=O)C(=O)c1c-2ccc2c1CCCC2(C)C: 57

Data request: Form entry - test system: CYP17A1 17,20-lyase (Homo sapiens, UniProt P05093); read-out: Residual 17,20-lyase activity; compound: `Cc1coc2c1C(=O)C(=O)c1c-2ccc2c(C)cccc12`
Data returned: 72
